Consider the following molecules; for each one, report its pIC50.
# ASSAYED_TARGET: human NOX4 (Homo sapiens, UniProt Q9NPH5)
# Construct: The full-length human NOX4 (NM_016931.3) transcript was cloned
# Sequence (Q9NPH5 whole entry): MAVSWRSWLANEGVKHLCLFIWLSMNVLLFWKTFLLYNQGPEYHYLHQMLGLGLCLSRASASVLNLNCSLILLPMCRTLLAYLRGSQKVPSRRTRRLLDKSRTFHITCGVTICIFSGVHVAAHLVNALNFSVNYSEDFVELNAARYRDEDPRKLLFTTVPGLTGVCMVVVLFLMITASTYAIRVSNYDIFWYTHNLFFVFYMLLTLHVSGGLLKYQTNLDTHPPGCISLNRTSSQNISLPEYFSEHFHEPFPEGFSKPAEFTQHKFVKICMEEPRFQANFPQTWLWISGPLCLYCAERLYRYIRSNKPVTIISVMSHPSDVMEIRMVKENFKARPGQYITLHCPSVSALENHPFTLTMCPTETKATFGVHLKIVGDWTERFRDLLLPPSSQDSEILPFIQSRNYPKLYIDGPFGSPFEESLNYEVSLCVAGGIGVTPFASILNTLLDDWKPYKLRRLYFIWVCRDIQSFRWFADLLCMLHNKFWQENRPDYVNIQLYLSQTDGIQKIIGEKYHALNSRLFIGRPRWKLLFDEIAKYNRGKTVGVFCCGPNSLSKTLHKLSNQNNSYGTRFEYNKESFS
# Sequence (P13498 whole entry partner): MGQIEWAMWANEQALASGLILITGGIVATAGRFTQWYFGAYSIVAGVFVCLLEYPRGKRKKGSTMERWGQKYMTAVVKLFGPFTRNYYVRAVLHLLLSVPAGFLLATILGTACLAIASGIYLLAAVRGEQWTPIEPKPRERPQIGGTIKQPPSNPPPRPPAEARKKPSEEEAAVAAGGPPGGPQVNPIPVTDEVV
# TEST_DETAILS: Amplex Red activity assay (cellular H2O2 formation in hNOX4 T-REx-293 cells)
# STATED_CONDITIONS: tet-induced 24 h, extracellular H2O2 by Amplex Red, 60 min 25° C., geometric mean if determined several times
One number for each entry, as −log10 of the molar value.

Use these answered entries as a reference point.
MOLECULE	pIC50
O=C(Nc1ccc2oc(N3CCCC(F)(F)C3)nc2c1)c1ccc2c(c1)CCO2	6.41
O=C(Nc1ccc2oc(N3CCC34CCC4)nc2c1)c1ccc2c(c1)CCCO2	6.05
O=C(Nc1ccc2oc(N3CCC34CCOCC4)nc2c1)c1ccc2c(c1)OCCO2	5.94
CN(C)C1CCN(c2nc3cc(NC(=O)c4ccc5c(c4)CCO5)ccc3s2)CC1	5.20
COC1CCN(c2nc3cc(C(=O)Nc4ccc5c(c4)CCO5)ccc3s2)CC1	5.56

Provide reported pIC50 for each item, in the same order as listed.
1. O=C(Nc1ccc2oc(N3CC(O)C3)nc2c1)c1ccc2c(c1)OCO2
2. O=C(Nc1ccc2oc(N3CC(N4CCC(O)CC4)C3)nc2c1)c1ccc2c(c1)CCO2
3. O=C(Nc1ccc2sc(N3CCC4(CC3)COC4)nc2c1)c1ccc2c(c1)CCO2
4. O=C(Nc1ccc2oc(N3CCC(O)CC3)nc2c1)c1ccc2c(c1)OCO2
5. O=C(Nc1ccc2c(c1)CCO2)c1ccc2sc(N3CCC34CCOC4)nc2c1 (stereo not drawn)

5.68
5.62
5.51
5.96
6.14

Data provenance: patent US11136317B2
